Test: water solubility / solubilization of the compound of Formula 1
Format: physicochemical
Details: water; room temperature (about 25° C.)
observedProperty: solubility (µg/mL)
Give a bare numeral; the unit µg/mL is implied.

Problem: Item under review: `Nc1nc2c(nc(O)n2[C@H]2C[C@H](O)[C@@H](CO)O2)c(=O)[nH]1` . Reported solubility?
Result: 1910

Measured values drawn from patent US20250082665A1 for this set.
